All values here come from PubChem BioAssay (NCI).

# Test system: OVCAR-8 ovarian
# assay.procedure: NCI tumour cell line growth inhibition, 48 h
Where a SMILES comes first, the peptide text is derived from it. The star is where a group is joined. Cbz = O=C(OCc1ccccc1)*

- compound: "N#Cc1nc2cc(F)c(F)cc2nc1-c1ccc(Cl)cc1"
  measured.target: "OVCAR-8 ovarian"
  TGI: "4.76 µM"
- compound: "CCOC(=O)C1=NN(c2ccccc2)C2=CC(C)=NN(C)C(=S)N21"
  measured.target: "OVCAR-8 ovarian"
  TGI: "> 100 µM"
- compound: "COc1cc(C2c3cc4c(cc3OC(NCc3ccccc3)C2C)OCO4)cc(OC)c1OC (stereo unspecified)"
  measured.target: "OVCAR-8 ovarian"
  TGI: "> 100 µM"
- compound: "CCOC(=O)C(CC(=O)OC)NC(=O)C(CC(=O)OC)NC(=O)C(CC(=O)OC)NC(=O)C(CC(=O)OC)NC(=O)OCc1ccccc1 (stereo unspecified) (Cbz-D(OMe)D(OMe)D(OMe)D(OMe)-OEt; configuration not given here)"
  measured.target: "OVCAR-8 ovarian"
  TGI: "> 100 µM"
- compound: "C/C(=N\\NC(=S)NNC(=S)N(C)c1ccccc1)c1ccccn1"
  measured.target: "OVCAR-8 ovarian"
  TGI: "> 100 µM"
- compound: "C=CCCCCCC(O)C(O)C/C=C\\C/C=C\\CC (stereo unspecified)"
  measured.target: "OVCAR-8 ovarian"
  TGI: "> 18.8 µM"
- compound: "O=C(CC(C(=O)c1cccs1)c1ccsc1)c1ccco1 (stereo unspecified)"
  measured.target: "OVCAR-8 ovarian"
  TGI: "> 100 µM"
- compound: "COc1cc(-c2oc(C=Nc3ccccc3)c([N+](=O)[O-])c2-c2ccc(O)c(OC)c2)ccc1O"
  measured.target: "OVCAR-8 ovarian"
  TGI: "> 54.9 µM"
- compound: "CCN(CC)CCC(=O)c1ccc(Oc2ccccc2)cc1"
  measured.target: "OVCAR-8 ovarian"
  TGI: "> 100 µM"
- compound: "C[C@@H]1C[C@@]2(O[C@@H]2C)C(=O)O[C@@H]2CCN3CC=C(COC(=O)[C@]1(C)O)[C@H]23"
  measured.target: "OVCAR-8 ovarian"
  TGI: "> 100 µM"
- compound: "Clc1ccc(-c2nnc(C34CC5CC(CC(C5)C3)C4)o2)cc1"
  measured.target: "OVCAR-8 ovarian"
  TGI: "> 100 µM"
- compound: "NS(=O)(=O)c1nnc(/N=C(/CCC(=O)O)C(=O)O)s1"
  measured.target: "OVCAR-8 ovarian"
  TGI: "> 100 µM"
- compound: "CC1SC(=O)SC1C (stereo unspecified)"
  measured.target: "OVCAR-8 ovarian"
  TGI: "> 100 µM"
- compound: "O=C(CN1C(=O)c2ccccc2C1=O)C(O)CN1C(=O)c2ccccc2C1=O (stereo unspecified)"
  measured.target: "OVCAR-8 ovarian"
  TGI: "> 100 µM"
- compound: "CCOC(=O)C(=CNC(=S)Nc1c(CC)cccc1CC)C(=O)OCC"
  measured.target: "OVCAR-8 ovarian"
  TGI: "> 100 µM"
- compound: "O=S1c2ccccc2SCSc2ccccc21"
  measured.target: "OVCAR-8 ovarian"
  TGI: "> 100 µM"

* * *

# Tested on: HL-60(TB) leukemia
# assay.procedure: NCI tumour cell line growth inhibition, 48 h
The entries below are paired with their reported TGI.
outcome.measure: TGI

- compound: "C/C(=N\\O)C(CN1CCCCC1)C(c1ccccc1)c1c(O)c2ccccc2oc1=O (stereo not given)"
  obs.value: "> 10 µM"
- compound: "O=C(CCCCCCC(=O)Nc1ccc2c(c1)/C(=C/c1ccc[nH]1)C(=O)N2)NO"
  obs.value: "> 100 µM"
- compound: "CC(=O)c1c[nH]cc1CO"
  obs.value: "> 10 µM"
- compound: "Clc1ccccc1-c1nnc2c(-c3ccccc3)nc3ccccc3n12"
  obs.value: "> 100 µM"
- compound: "CC1SC(=O)SC1C (stereo not given)"
  obs.value: "> 100 µM"
- compound: "Cn1c(=O)c(C(=O)NC(=O)OCc2ccccc2)cn(CCSCCOC(=O)NCCCCCCNC(=O)OCCSCCn2cc(C(=O)NC(=O)OCc3ccccc3)c(=O)n(C)c2=O)c1=O"
  obs.value: "> 100 µM"
- compound: "O=C1CCCC1NC(=O)C(F)(F)F (stereo not given)"
  obs.value: "> 100 µM"
- compound: "O=P1(O)c2ccccc2Nc2cc(C(F)(F)F)ccc21"
  obs.value: "> 100 µM"
- compound: "CCOC(=O)NC(=O)c1cn(CCN2CCN(C(=O)NCCCCCCNC(=O)N3CCN(CCn4cc(C(=O)NC(=O)OCC)c(=O)n(CCN(CC)CC)c4=O)CC3)CC2)c(=O)n(CCC(CC)CC)c1=O"
  obs.value: "> 100 µM"
- compound: "O=Cc1ccc(-c2cccc([N+](=O)[O-])c2)s1"
  obs.value: "> 100 µM"

* * *

# System: CAKI-1 renal
# assay.procedure: NCI tumour cell line growth inhibition, 48 h
outcome.measure: TGI

- molecule: "COc1ccc2nc(C)cc(Nc3ccccc3O)c2c1"
  outcome.measure: "TGI"
  obs.value: "> 100 µM"
- molecule: "CS/C(c1ccccc1)=[N+](/C)[O-]"
  outcome.measure: "TGI"
  obs.value: "> 100 µM"
- molecule: "N#C/C(=C\\c1ccc(Br)cc1)c1nc(-c2cc3ccccc3oc2=O)cs1"
  outcome.measure: "TGI"
  obs.value: "> 50 µM"
- molecule: "COc1ccc2c(c1)CCCN1Cc3ccccc3CC21 (stereo unspecified)"
  outcome.measure: "TGI"
  obs.value: "> 100 µM"
- molecule: "Cc1cc(N)ccc1C=O"
  outcome.measure: "TGI"
  obs.value: "> 100 µM"
- molecule: "OC(C/C(=N\\N=C(/CC(O)(C(F)(F)F)C(F)(F)F)c1ccccc1)c1ccccc1)(C(F)(F)F)C(F)(F)F"
  outcome.measure: "TGI"
  obs.value: "> 10 µM"

* * *

# Test system: SF-539 CNS
# assay.procedure: NCI tumour cell line growth inhibition, 48 h
Below: a set of entries, each annotated with reported TGI.
outcome.measure: TGI

- molecule: "CC(C)C[C@@H]1NC(=O)[C@@H]2CCCN2C(=O)[C@@H]2CCCN2C(=O)[C@H](CC(C)C)NC(=O)[C@H](CO)NC(=O)[C@H](CCCCN)NC(=O)[C@H]([C@H](C)O)NC(=O)[C@@H]2CCCC[C@@H](NC1=O)C(=O)N[C@@H](Cc1ccccc1)C(=O)N1CCC[C@H]1C(=O)N[C@@H](CC(=O)O)C(=O)NCC(=O)N[C@@H](CCCN=C(N)N)C(=O)N2"
  measured.target: "SF-539 CNS"
  outcome.measure: "TGI"
  obs.value: "> 50 µM"
- molecule: "CC(=O)OCC1OC(n2c(C)c(C(C)=O)c(-c3cccc4ccccc34)c(C#N)c2=S)C(OC(C)=O)C(OC(C)=O)C1OC(C)=O (stereo unspecified)"
  measured.target: "SF-539 CNS"
  outcome.measure: "TGI"
  obs.value: "> 100 µM"
- molecule: "O=C1CCc2cc3c(cc21)CC1(Cc2cc4c(cc2C1)CCCC4)C3"
  measured.target: "SF-539 CNS"
  outcome.measure: "TGI"
  obs.value: "> 100 µM"
- molecule: "CC1SC(=O)SC1C (stereo unspecified)"
  measured.target: "SF-539 CNS"
  outcome.measure: "TGI"
  obs.value: "> 100 µM"
- molecule: "C[CH2][Sn]([Cl])([Cl])[CH2]C"
  measured.target: "SF-539 CNS"
  outcome.measure: "TGI"
  obs.value: "> 100 µM"
- molecule: "Clc1ccc(-c2nc3ccc(C45CC6CC(CC(C6)C4)C5)cc3[nH]2)cc1"
  measured.target: "SF-539 CNS"
  outcome.measure: "TGI"
  obs.value: "> 100 µM"
- molecule: "O=P1(O)c2ccccc2Nc2cc(C(F)(F)F)ccc21"
  measured.target: "SF-539 CNS"
  outcome.measure: "TGI"
  obs.value: "> 100 µM"
- molecule: "CC1(C)C2C/C(=C\\c3ccccc3)C(=O)C1C2 (stereo unspecified)"
  measured.target: "SF-539 CNS"
  outcome.measure: "TGI"
  obs.value: "> 100 µM"
- molecule: "CS/C(c1ccccc1)=[N+](/C)[O-]"
  measured.target: "SF-539 CNS"
  outcome.measure: "TGI"
  obs.value: "> 100 µM"
- molecule: "Cc1ccc(N2C(=O)/C(=C/c3ccc(N(CCC#N)CCC#N)cc3C)N=C2c2cc([N+](=O)[O-])ccc2Cl)cc1"
  measured.target: "SF-539 CNS"
  outcome.measure: "TGI"
  obs.value: "> 100 µM"
- molecule: "COC(=O)C1(C)CCCC2(C)C3CCC4CC3(C=C4CO)CCC12 (stereo unspecified)"
  measured.target: "SF-539 CNS"
  outcome.measure: "TGI"
  obs.value: "> 100 µM"
